study-target: HsGSK-3 beta (Homo sapiens)
Sequence (P49841 whole entry): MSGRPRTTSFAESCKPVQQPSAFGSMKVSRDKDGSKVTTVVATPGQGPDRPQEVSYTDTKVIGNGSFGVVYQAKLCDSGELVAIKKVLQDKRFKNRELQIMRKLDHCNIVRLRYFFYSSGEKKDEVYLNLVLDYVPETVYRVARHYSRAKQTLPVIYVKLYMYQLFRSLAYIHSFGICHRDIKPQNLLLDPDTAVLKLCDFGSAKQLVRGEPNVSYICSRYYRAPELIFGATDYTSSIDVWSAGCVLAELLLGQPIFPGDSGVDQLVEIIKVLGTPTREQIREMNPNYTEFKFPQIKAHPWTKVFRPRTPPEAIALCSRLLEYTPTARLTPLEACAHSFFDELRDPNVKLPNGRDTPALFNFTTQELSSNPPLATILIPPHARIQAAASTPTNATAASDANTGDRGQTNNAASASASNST
pIC50: −log10 of the molar value.
measured-parameter: pIC50

Completed entries (count: 4):
[
  {
    "molecule": "O=C1NCCc2[nH]c(-c3ccnc(Nc4ccc(-n5cccn5)cc4)c3)cc21 [PF-04903528]",
    "pIC50": 6.63
  },
  {
    "molecule": "CC(C)C(=O)Nc1cc([C@H]2C[C@@H](OC(=O)N(C)Cc3ccccc3)C2)[nH]n1 [CE-325692]",
    "pIC50": 8.70
  },
  {
    "molecule": "CCc1nn(CCC(=O)Nc2cc([C@H]3C[C@@H](NC(C)=O)C3)[nH]n2)c2ccccc12 [CE-160042]",
    "pIC50": 7.49
  },
  {
    "molecule": "CCCC1=C(C#N)C(c2cccc3nonc23)c2cn[nH]c2N1 (stereo not shown) [CE-309608]",
    "pIC50": 7.34
  }
]

[I] CC(C)C(=O)Nc1cc([C@H]2C[C@@H](OC(=O)NCc3ccccc3Cl)C2)[nH]n1 [CE-324998]
[II] Cc1cc(Nc2cc[nH]n2)nc(N(C)CCc2ccncc2)n1 [PF-01242377]
Larger number for pIC50: I , or II ? Field: selected label. Fill in the label of the entry you choose.
I

###

study-target: TbruGSK-3 short (Trypanosoma brucei brucei)
Sequence (Q388M1 1-352): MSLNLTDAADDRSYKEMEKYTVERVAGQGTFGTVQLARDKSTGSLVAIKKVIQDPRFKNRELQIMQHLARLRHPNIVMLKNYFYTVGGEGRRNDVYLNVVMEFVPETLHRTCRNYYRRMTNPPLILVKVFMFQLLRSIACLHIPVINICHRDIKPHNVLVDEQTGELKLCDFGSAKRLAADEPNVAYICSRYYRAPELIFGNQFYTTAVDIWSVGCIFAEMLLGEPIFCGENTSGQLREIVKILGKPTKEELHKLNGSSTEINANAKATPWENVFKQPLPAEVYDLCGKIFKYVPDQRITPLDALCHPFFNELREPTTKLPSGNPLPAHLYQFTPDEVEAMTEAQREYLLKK
pIC50: −log10 of the molar value.
measured-parameter: pIC50

Recorded results for 3 compounds are shown here.
[
  {
    "compound": "CN(C)C[C@@H](NC(=O)c1ccc2[nH]nc(-c3nc4ccccc4[nH]3)c2c1)c1ccccc1",
    "experimental-result": 7.15
  },
  {
    "compound": "Cc1cc(Nc2cc[nH]n2)nc(N(C)CCc2ccncc2)n1",
    "experimental-result": 7.21
  },
  {
    "compound": "O=C1NCCc2[nH]c(-c3ccnc(Nc4ccc(-n5cccn5)cc4)c3)cc21",
    "experimental-result": 7.49
  }
]

[a] CCc1nn(CCC(=O)Nc2cc([C@H]3C[C@@H](NC(C)=O)C3)[nH]n2)c2ccccc12
[b] CNCc1cncc(-c2ccc3[nH]nc(-c4nc5ccccc5[nH]4)c3c2)c1C
[c] CCCC1=C(C#N)C(c2cccc3nonc23)c2cn[nH]c2N1 (centres unmarked)
Put the items in sequence by pIC50, from largest down. // format: requested-order list of labels
c, b, a
(c: 7.68, b: 7.21, a: 6.85)

[a] CC(C)C(=O)Nc1cc([C@H]2C[C@@H](OC(=O)NCc3cccc(C(F)(F)F)c3F)C2)[nH]n1
[b] Cc1cc2nc(N3CCc4nc[nH]c(=O)c4C3)nc(Nc3cc(C4CC4)[nH]n3)c2s1
Please compare: a and b . Report which one has the smaller pIC50 value. Reply with the label of the item you choose.
a
(a: 7.03, b: 7.24)

###

Listing of entries alongside the reported EC50 at 72 h.
protocol-text: Cytotoxicity against MRC-5 cell line, resazurin
Assay type: cell-based, human
applied-conditions: human, MRC-5 fetal lung fibroblast cells; 72 hours incubation
Express it in nM; write the number only.

[
  {
    "molecule": "CCC(C(=O)Nc1cc([C@H]2C[C@@H](OC(=O)NCc3ccccn3)C2)[nH]n1)c1ccccc1 (some centres unmarked)",
    "experimental-result": 930
  },
  {
    "molecule": "CNC(=O)[C@@H]1CCCN1c1nc(Cc2cccc(C#N)c2)cc(Nc2cc(C3CC3)[nH]n2)n1",
    "experimental-result": 130
  }
]

# input molecule: O=C(NC1CCN(C(=O)Cc2ccccc2)C1)c1ccc2[nH]nc(-c3nc4ccccc4[nH]3)c2c1 (centres unmarked) ; wanted: its EC50 at 72 h
39400

// EC50 at 72 h lookup, key: O=C1NCCc2[nH]c(-c3ccnc(Nc4ccc(-n5cccn5)cc4)c3)cc21
1130

Look at this molecule and give its reported EC50 at 72 h. CC(C)C(=O)Nc1cc([C@H]2C[C@@H](OC(=O)NCc3cccc(C(F)(F)F)c3F)C2)[nH]n1
2320

Can you look up the measured EC50 at 72 h of CN(C)C[C@@H](NC(=O)c1ccc2[nH]nc(-c3nc4ccccc4[nH]3)c2c1)c1ccccc1 for me?
130

###

study-target: TbruGSK-3 short (Trypanosoma brucei brucei)
Sequence (Q388M1 1-352): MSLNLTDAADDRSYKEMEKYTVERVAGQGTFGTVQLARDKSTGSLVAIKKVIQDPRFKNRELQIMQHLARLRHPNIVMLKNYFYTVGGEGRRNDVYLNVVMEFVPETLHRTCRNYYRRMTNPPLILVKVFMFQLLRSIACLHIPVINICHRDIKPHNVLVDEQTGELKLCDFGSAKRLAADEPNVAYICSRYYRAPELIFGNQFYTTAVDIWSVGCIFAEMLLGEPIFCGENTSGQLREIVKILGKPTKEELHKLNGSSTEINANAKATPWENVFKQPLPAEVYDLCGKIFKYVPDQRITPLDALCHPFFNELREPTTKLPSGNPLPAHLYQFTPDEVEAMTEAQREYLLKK
pIC50: −log10 of the molar value.
measured-parameter: pIC50

[
  {
    "compound": "O=C(NC1CCN(C(=O)Cc2ccccc2)C1)c1ccc2[nH]nc(-c3nc4ccccc4[nH]3)c2c1 (stereo not drawn) [CE-317112]",
    "measured-parameter": "pIC50",
    "experimental-result": 7.00
  },
  {
    "compound": "CC(C)C(=O)Nc1cc([C@H]2C[C@@H](OC(=O)NCc3ccccc3Cl)C2)[nH]n1 [CE-324998]",
    "measured-parameter": "pIC50",
    "experimental-result": 7.03
  },
  {
    "compound": "CS(=O)(=O)c1ccc(S(=O)(=O)Nc2ccc3c(Cl)c(C(=O)N4CCc5ccccc5C4)sc3c2)cc1 [AG-02449]",
    "measured-parameter": "pIC50",
    "experimental-result": 7.16
  }
]

[A] CC(C)C(=O)Nc1cc([C@H]2C[C@@H](OC(=O)N(C)Cc3ccccc3)C2)[nH]n1 [CE-325692]
[B] CNC(=O)[C@@H]1CCCN1c1nc(Cc2cccc(C#N)c2)cc(Nc2cc(C3CC3)[nH]n2)n1 [PF-02368935]
[C] O=c1ccc2cnc(Nc3ccc(N4CCC(CCCO)CC4)cc3)nc2n1C1CCCC1 [compound 0181276]
[D] O=c1ccc2cnc(Nc3ccccc3)nc2n1C1CC2CCC1C2 (stereo not drawn) [compound 0180532]
# rank_down: sort by pIC50, max first Thanks in advance for listing the labels in the requested order.
B, A, C, D
(B: 7.72, A: 7.19, C: 6.22, D: 5.14)

###

protocol-text: Cytotoxicity against MRC-5 cell line, resazurin
Format: cell-based, human
applied-conditions: human, MRC-5 fetal lung fibroblast cells; 72 hours incubation
measured-parameter: EC50 at 72 h (µM)
The answer is to be given in µM; state only the numeric part.

// known answers, use as guide
[
  {
    "molecule": "CNCc1cncc(-c2ccc3[nH]nc(-c4nc5ccccc5[nH]4)c3c2)c1C",
    "measured-parameter": "EC50 at 72 h",
    "experimental-result": 0.13
  },
  {
    "molecule": "CC(C)C(=O)Nc1cc([C@H]2C[C@@H](OC(=O)N(C)Cc3ccccc3)C2)[nH]n1",
    "measured-parameter": "EC50 at 72 h",
    "experimental-result": 4.67
  },
  {
    "molecule": "CCCC1=C(C#N)C(c2cccc3nonc23)c2cn[nH]c2N1 (centres unmarked)",
    "measured-parameter": "EC50 at 72 h",
    "experimental-result": 16
  },
  {
    "molecule": "CC(C)C(=O)Nc1cc([C@H]2C[C@@H](OC(=O)NCc3ccccc3Cl)C2)[nH]n1",
    "measured-parameter": "EC50 at 72 h",
    "experimental-result": 1.22
  },
  {
    "molecule": "O=C(NCc1ccccc1)O[C@H]1C[C@@H](c2cc(NC(=O)C3CCCCC3)n[nH]2)C1",
    "measured-parameter": "EC50 at 72 h",
    "experimental-result": 1.47
  },
  {
    "molecule": "Cc1cc(Nc2cc[nH]n2)nc(N(C)CCc2ccncc2)n1",
    "measured-parameter": "EC50 at 72 h",
    "experimental-result": 1.18
  }
]

Query (molecule): CS(=O)(=O)c1ccc(S(=O)(=O)Nc2ccc3c(Cl)c(C(=O)N4CCc5ccccc5C4)sc3c2)cc1 ; field requested: EC50 at 72 h
0.62

What value of measured EC50 at 72 h is listed for Cc1cc2nc(N3CCc4nc[nH]c(=O)c4C3)nc(Nc3cc(C4CC4)[nH]n3)c2s1 ?
2.17
